PROTOCOL: Solubility by LC/MS/MS
Type: physicochemical
RUN_PARAMETERS: RPMI1640 plus 5% charcoal-stripped serum, plasma or biological fluid, kinetic from dmso stock, cell culture media with serum, read-out: Solubility Media/FBS
Below, each of the molecules is paired with its reported solubility at 1 h value.
Just the number please, in µM, no unit attached.

Some solved cases for reference:
O=C(Nc1ccc(Nc2ccccc2)cc1)c1ccc[nH]c1=S [T60] | 206
CC(=O)Nc1cc(Nc2ccccc2)ccc1NC(=O)c1ccc[nH]c1=S [T637] | 707

Task: Complete the entry with solubility at 1 h for Nc1cc(Nc2ccccc2)ccc1NC(=O)c1ccc[nH]c1=S [T638]
Result: 485

----------
TARGET_DESC: UniProt:Q02880
Sequence (Q02880 whole entry): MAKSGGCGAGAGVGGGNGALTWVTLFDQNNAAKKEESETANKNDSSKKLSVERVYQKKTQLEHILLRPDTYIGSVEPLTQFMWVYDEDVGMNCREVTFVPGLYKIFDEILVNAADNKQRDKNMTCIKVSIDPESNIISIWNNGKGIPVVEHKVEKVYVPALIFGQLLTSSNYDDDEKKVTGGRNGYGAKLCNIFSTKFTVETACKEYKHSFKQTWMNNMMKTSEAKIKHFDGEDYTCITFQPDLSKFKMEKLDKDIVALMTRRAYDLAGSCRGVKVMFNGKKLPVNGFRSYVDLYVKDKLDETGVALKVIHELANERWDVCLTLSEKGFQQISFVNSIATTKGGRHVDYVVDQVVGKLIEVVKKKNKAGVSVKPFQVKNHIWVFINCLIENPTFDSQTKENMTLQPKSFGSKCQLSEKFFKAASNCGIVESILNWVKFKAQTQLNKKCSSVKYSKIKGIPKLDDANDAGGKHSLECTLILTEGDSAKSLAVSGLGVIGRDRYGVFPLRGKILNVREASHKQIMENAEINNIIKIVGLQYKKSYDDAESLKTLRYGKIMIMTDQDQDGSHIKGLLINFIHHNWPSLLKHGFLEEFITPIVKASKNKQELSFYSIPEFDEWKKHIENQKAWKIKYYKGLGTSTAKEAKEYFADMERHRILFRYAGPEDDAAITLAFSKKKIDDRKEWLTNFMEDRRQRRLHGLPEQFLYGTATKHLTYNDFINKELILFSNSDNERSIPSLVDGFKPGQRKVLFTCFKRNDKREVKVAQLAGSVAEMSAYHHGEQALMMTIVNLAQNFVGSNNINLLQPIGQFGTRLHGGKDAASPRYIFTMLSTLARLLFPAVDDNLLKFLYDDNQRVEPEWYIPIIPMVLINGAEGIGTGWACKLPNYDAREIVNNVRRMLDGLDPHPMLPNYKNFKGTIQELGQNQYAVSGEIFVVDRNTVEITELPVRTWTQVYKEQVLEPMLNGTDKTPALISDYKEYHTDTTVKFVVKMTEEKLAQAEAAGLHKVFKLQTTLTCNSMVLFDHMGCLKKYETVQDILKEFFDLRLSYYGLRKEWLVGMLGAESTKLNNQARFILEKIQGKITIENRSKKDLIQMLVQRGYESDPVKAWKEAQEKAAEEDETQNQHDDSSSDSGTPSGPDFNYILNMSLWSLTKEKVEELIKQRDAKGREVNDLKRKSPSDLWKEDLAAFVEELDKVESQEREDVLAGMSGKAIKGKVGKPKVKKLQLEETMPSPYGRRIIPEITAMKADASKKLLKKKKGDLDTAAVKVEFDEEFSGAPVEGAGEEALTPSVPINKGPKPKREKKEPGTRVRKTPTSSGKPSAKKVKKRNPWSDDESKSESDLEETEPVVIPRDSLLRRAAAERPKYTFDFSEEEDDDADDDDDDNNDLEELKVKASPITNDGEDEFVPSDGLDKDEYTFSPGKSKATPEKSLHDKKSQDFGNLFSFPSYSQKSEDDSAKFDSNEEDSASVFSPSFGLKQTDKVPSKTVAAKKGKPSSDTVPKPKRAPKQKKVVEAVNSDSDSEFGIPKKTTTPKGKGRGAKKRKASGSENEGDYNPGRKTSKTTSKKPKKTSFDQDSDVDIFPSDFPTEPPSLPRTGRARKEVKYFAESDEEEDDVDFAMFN
PROTOCOL: K-DNA decatenation assay, TOP2B
Format: biochemical
RUN_PARAMETERS: 0.01-200 uM, three biological repeats
pIC50: −log10 of the molar value.
MEASURED_QUANTITY: pIC50

Some solved cases for reference:
O=C(Nc1ccc(Nc2ccccc2)cc1)c1ccc[nH]c1=S | ~5.51
CC(=O)Nc1cc(Nc2ccccc2)ccc1NC(=O)c1ccc[nH]c1=S | ~5.05

Next up:
Task: Determine reported pIC50 for Nc1cc(Nc2ccccc2)ccc1NC(=O)c1ccc[nH]c1=S ; test system: UniProt:Q02880.
Result: ~5.42

----------
Below, each of the compounds is paired with its reported solubility at 1 h value.
PROTOCOL: Solubility by LC/MS/MS
Assay type: physicochemical
RUN_PARAMETERS: phosphate-buffered saline, aqueous buffer, kinetic from dmso stock, PBS, read-out: Solubility PBS
Just the number please, in µM, no unit attached.

Some solved cases for reference:
O=C(Nc1ccc(Nc2ccccc2)cc1)c1ccc[nH]c1=S [T60] | 5.8
Nc1cc(Nc2ccccc2)ccc1NC(=O)c1ccc[nH]c1=S [T638] | 142

Next up:
Task: Complete the entry with solubility at 1 h for CC(=O)Nc1cc(Nc2ccccc2)ccc1NC(=O)c1ccc[nH]c1=S [T637]
Result: 20

----------
PROTOCOL: in vitro
RUN_PARAMETERS: mouse, liver microsomes, pH 7.4
MEASURED_QUANTITY: microsomal CLint at 1 uM (µL/min/mg)
Just the number please, in µL/min/mg, no unit attached.

O=C(Nc1ccc(Nc2ccccc2)cc1)c1ccc[nH]c1=S [T60] | 46

Task: Complete the entry with microsomal CLint at 1 uM for CC(=O)Nc1cc(Nc2ccccc2)ccc1NC(=O)c1ccc[nH]c1=S [T637]
Result: 116

Task: Complete the entry with microsomal CLint at 1 uM for Nc1cc(Nc2ccccc2)ccc1NC(=O)c1ccc[nH]c1=S [T638]
Result: 2

----------
Below, each of the compounds is paired with its reported solubility at 1 h value.
PROTOCOL: Solubility by LC/MS/MS
Type: physicochemical
RUN_PARAMETERS: methanol, organic solvent or mixture, kinetic from dmso stock, methanol, read-out: Solubility Methanol

Some solved cases for reference:
Nc1cc(Nc2ccccc2)ccc1NC(=O)c1ccc[nH]c1=S | > 1000 µM
O=C(Nc1ccc(Nc2ccccc2)cc1)c1ccc[nH]c1=S | > 1000 µM

Task: Complete the entry with solubility at 1 h for CC(=O)Nc1cc(Nc2ccccc2)ccc1NC(=O)c1ccc[nH]c1=S
Result: > 1000 µM

----------
TARGET_DESC: UniProt P11388
Sequence (P11388 whole entry): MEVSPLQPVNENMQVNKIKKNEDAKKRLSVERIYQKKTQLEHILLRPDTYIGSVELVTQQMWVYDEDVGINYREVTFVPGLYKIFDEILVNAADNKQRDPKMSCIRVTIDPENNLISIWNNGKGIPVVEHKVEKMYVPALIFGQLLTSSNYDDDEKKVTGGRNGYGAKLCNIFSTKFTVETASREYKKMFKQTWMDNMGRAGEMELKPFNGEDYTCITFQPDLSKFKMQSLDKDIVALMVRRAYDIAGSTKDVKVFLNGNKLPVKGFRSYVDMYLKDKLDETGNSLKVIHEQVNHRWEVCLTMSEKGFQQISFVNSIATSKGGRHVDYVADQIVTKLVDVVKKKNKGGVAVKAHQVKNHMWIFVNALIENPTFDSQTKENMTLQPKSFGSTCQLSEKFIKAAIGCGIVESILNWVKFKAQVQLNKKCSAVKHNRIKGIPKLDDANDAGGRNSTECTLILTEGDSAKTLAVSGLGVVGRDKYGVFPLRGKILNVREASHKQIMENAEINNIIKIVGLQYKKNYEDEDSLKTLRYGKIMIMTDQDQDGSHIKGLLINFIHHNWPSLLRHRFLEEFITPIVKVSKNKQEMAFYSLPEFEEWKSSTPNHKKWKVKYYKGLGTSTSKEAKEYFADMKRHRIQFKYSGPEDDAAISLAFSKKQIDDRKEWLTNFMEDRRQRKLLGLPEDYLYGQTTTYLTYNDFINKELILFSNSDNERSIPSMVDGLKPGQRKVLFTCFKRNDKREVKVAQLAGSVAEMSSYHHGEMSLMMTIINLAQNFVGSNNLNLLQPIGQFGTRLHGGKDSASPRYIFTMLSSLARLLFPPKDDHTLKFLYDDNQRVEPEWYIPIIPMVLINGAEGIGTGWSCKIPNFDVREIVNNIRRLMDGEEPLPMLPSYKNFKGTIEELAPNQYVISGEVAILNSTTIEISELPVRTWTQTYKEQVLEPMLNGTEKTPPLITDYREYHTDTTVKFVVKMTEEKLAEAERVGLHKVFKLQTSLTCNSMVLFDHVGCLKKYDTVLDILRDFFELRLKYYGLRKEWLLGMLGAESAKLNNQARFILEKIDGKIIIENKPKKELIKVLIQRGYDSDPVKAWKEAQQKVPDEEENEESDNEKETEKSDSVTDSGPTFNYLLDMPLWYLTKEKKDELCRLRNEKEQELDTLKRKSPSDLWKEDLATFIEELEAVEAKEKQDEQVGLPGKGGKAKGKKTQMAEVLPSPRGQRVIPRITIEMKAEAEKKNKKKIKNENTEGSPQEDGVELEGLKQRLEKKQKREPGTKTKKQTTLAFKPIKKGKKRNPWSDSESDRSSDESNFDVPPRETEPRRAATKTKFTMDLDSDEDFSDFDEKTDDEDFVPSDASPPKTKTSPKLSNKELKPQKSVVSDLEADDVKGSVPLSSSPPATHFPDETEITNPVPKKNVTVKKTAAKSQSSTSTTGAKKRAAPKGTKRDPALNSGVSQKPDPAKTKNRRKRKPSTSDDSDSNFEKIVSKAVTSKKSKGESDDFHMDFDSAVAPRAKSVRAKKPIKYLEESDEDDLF
PROTOCOL: K-DNA decatenation assay, TOP2A
Assay type: biochemical
RUN_PARAMETERS: 0.01-200 uM, three biological repeats
MEASURED_QUANTITY: IC50

Some solved cases for reference:
Nc1cc(Nc2ccccc2)ccc1NC(=O)c1ccc[nH]c1=S | ~700 nM
CC(=O)Nc1cc(Nc2ccccc2)ccc1NC(=O)c1ccc[nH]c1=S | ~1400 nM

Next up:
Task: Complete the entry with IC50 for O=C(Nc1ccc(Nc2ccccc2)cc1)c1ccc[nH]c1=S
Result: ~300 nM
